Exercise: for every item that follows, state its recorded Papp A→B at 2 h, 10 µM.
- PROTOCOL: Apparent permeability from apical to basolateral side in MDCKI cells at 10 uM after 2 hrs
- Assay type: ADME, cell-based, Canis lupus familiaris
- EXPERIMENTAL_CONTEXT: dog, MDCK

IN: # input compound: Cc1nc(-c2cn3c(n2)-c2cc([C@@H](C)N4CCN(C(C)(C)C)CC4)c(F)cc2OCC3)n(C(C)C)n1 ; wanted: its Papp A→B at 2 h, 10 µM
OUT: 13.6 ×10⁻⁶ cm/s

IN: # input compound: Cc1nc(-c2cn3c(n2)-c2cc([C@@H](C)N4CCN(C(C)(C)C)CC4)c(C)cc2OCC3)n(C(C)C)n1 ; wanted: its Papp A→B at 2 h, 10 µM
OUT: 14.2 ×10⁻⁶ cm/s

IN: # input compound: Cc1nc(-c2cn3c(n2)-c2cc([C@H](C)N4CCN(C(C)(C)C)CC4)ncc2OCC3)n(C(C)C)n1 ; wanted: its Papp A→B at 2 h, 10 µM
OUT: 10 ×10⁻⁶ cm/s

---

Exercise: for every item that follows, state its recorded CLhep predicted at 1 µM.
- PROTOCOL: Stability in human liver microsomes at 1 uM in presence of NADPH by LC-MS/MS analysis
- Assay type: ADME, microsome
- EXPERIMENTAL_CONTEXT: read-out: Stability
Give the value, in units of mL/min/kg, as a plain number.

IN: # input compound: Cc1nc(-c2cn3c(n2)-c2cc([C@@H](C)N4CCN(C(C)(C)C)CC4)c(C)cc2OCC3)n(C(C)C)n1 ; wanted: its CLhep predicted at 1 µM
OUT: 8.4

IN: # input compound: Cc1nc(-c2cn3c(n2)-c2cc([C@@H](C)N4CCN(C(C)(C)C)CC4)c(F)cc2OCC3)n(C(C)C)n1 ; wanted: its CLhep predicted at 1 µM
OUT: 15

IN: # input compound: CC(C)n1ncnc1-c1cn2c(n1)-c1cc([S@+]([O-])C3CCN(C(C)(C)C)CC3)ccc1OCC2 ; wanted: its CLhep predicted at 1 µM
OUT: 12

IN: # input compound: CC(C)n1ncnc1-c1cn2c(n1)-c1cc(CN3CCC(C(C)(C)O)CC3)ccc1OCC2 ; wanted: its CLhep predicted at 1 µM
OUT: 6.8

IN: # input compound: CC(C)n1ncnc1-c1cn2c(n1)-c1cc([S@@+]([O-])C3CCN(C(C)(C)C)CC3)ccc1OCC2 ; wanted: its CLhep predicted at 1 µM
OUT: 17

IN: # input compound: CC(C)n1ncnc1-c1cn2c(n1)-c1cc(S(=O)(=O)N3CCN(C(C)(C)C)CC3)ccc1OCC2 ; wanted: its CLhep predicted at 1 µM
OUT: 20

IN: # input compound: CC(C)n1ncnc1-c1cn2c(n1)-c1cc(C(=O)N3CCN(C(C)(C)C)CC3)ccc1OCC2 ; wanted: its CLhep predicted at 1 µM
OUT: 14

IN: # input compound: CC(C)n1ncnc1-c1cn2c(n1)-c1cc(CN3CCN(C(C)(C)C)CC3)ccc1OCC2 ; wanted: its CLhep predicted at 1 µM
OUT: 9.7

---

- TESTED_TARGET: Phosphatidylinositol 4,5-bisphosphate 3-kinase catalytic subunit delta isoform (Homo sapiens)
- Sequence (O00329 whole entry, canonical isoform): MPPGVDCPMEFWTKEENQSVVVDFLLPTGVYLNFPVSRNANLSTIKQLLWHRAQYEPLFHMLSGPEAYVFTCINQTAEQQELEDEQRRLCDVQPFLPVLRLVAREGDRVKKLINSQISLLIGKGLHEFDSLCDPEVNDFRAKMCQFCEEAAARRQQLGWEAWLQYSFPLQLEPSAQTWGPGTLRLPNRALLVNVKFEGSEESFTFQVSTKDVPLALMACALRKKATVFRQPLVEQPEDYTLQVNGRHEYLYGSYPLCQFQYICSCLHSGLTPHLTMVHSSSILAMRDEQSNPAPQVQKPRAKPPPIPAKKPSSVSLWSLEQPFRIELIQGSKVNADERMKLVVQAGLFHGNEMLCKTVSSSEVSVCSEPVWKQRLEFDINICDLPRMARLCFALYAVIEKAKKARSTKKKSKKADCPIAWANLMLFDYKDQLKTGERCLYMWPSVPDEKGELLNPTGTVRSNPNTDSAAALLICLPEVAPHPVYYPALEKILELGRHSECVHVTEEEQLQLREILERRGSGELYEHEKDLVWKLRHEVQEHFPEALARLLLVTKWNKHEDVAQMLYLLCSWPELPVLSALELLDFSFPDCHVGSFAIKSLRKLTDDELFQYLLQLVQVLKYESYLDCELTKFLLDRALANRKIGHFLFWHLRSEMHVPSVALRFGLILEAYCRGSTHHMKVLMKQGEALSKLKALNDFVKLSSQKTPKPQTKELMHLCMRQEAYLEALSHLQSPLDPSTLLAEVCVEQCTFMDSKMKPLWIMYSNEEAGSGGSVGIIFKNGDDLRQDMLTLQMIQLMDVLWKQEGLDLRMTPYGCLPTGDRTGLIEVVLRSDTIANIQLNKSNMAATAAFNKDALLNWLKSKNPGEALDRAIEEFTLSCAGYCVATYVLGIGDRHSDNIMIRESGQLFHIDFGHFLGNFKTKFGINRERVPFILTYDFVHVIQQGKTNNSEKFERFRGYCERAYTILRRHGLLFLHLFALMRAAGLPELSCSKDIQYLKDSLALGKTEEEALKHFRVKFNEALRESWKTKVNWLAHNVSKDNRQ
- PROTOCOL: Binding affinity to PI3Kdelta (unknown origin)
- EXPERIMENTAL_CONTEXT: read-out: Ki(app)
READOUT_LABEL: Ki (nM)
Give the value, in units of nM, as a plain number.

IN: # input molecule: CC(C)n1ncnc1-c1cn2c(n1)-c1cc([S@+]([O-])C3CCN(C(C)(C)C)CC3)ccc1OCC2 ; wanted: its Ki
OUT: 12

IN: # input molecule: Cc1nc(-c2cn3c(n2)-c2cc([C@@H](C)N4CCN(C(C)(C)C)CC4)ncc2OCC3)n(C(C)C)n1 ; wanted: its Ki
OUT: 2.8

IN: # input molecule: CC(C)n1ncnc1-c1cn2c(n1)-c1cc(C(=O)N3CCN(C(C)(C)C)CC3)ccc1OCC2 ; wanted: its Ki
OUT: 1.7
